assay: Plasma pharmacokinetics in MCAO/R rats after iv IMM-H004 citrate; assay type: in vivo; details: rat, iv IMM-H004 citrate 10 mg/kg
reported property: AUC(0-inf) (ng·h/mL)

(I) COc1cc(O)cc2oc(=O)c(N3CCN(C)CC3)c(C)c12 [IMM-H004]
(II) COc1cc(OC2OC(C(=O)O)C(O)C(O)C2O)cc2oc(=O)c(N3CCN(C)CC3)c(C)c12 (centres unmarked) [IMM-H004G]
Ask: Of I and II , which one carries the higher reported AUC(0-inf)? Give the chosen item's label as your response.
Reply: II

---

assay: Plasma pharmacokinetics in MCAO/R rats after iv IMM-H004 citrate; format: in vivo; details: rat, iv IMM-H004 citrate 10 mg/kg, read-out: t 1/2β (converted)
reported property: half-life (h)

(A) COc1cc(OC2OC(C(=O)O)C(O)C(O)C2O)cc2oc(=O)c(N3CCN(C)CC3)c(C)c12 (centres unmarked) [IMM-H004G]
(B) COc1cc(O)cc2oc(=O)c(N3CCN(C)CC3)c(C)c12
Ask: Pick one, A or B : lowest reported half-life. Give the chosen item's label as your response.
Reply: B

---

assay: Plasma pharmacokinetics in MCAO/R rats after iv IMM-H004 citrate; assay type: in vivo; conditions: rat, iv, 10 mg/kg, iv IMM-H004 citrate 10 mg/kg, read-out: time to maximum plasma concentration after dosing
reported property: Tmax

Ask: Need Tmax, item COc1cc(OC2OC(C(=O)O)C(O)C(O)C2O)cc2oc(=O)c(N3CCN(C)CC3)c(C)c12 (stereo not shown) [IMM-H004G]
Reply: ≤ 15 min

---

test: Plasma pharmacokinetics in MCAO/R rats after iv IMM-H004 citrate; assay type: in vivo; conditions: rat, iv, 10 mg/kg, iv IMM-H004 citrate 10 mg/kg, read-out: T max
reported property: Tmax (min)

(A) COc1cc(O)cc2oc(=O)c(N3CCN(C)CC3)c(C)c12
(B) COc1cc(OC2OC(C(=O)O)C(O)C(O)C2O)cc2oc(=O)c(N3CCN(C)CC3)c(C)c12 (centres unmarked) [IMM-H004G]
Ask: Pick one, A or B : lowest reported Tmax. Give the chosen item's label as your response.
Reply: A
